SYSTEM_TESTED: Calmodulin-1 (Homo sapiens) (UniProt P0DP23)
PROTOCOL_DESCRIPTION: CALM1 binders on microarrays, EGTA buffer, profiling panel, biochemical, small-molecule microarray, Cy5-labelled CALM1 (AID 1111);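 note: labelled calmodulin applied in Tris saline Tween buffer holding calcium plus EGTA and DTT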
ASSAY_SETUP: Cy5-CALM1 binding fluorescence, higher = more signal
Lab note: anything with composite z-score at or over 0.3 counts as yes (1); the rest go in no (0).

MOLECULE | ASSIGNED_CLASS
C=C(COC)C(=O)CC[C@@H](OC(C)=O)c1ccc(OCCO)cc1 | no (0)
C=CCC(OC(C)=O)[C@@H]1[C@@H](N(Cc2ccc(-c3cccc(C(F)(F)F)c3)o2)C(=O)Cc2ccc(F)cc2)c2cc(OCCCO)ccc2N1C(=O)c1ccc2ccccc2n1 (stereo partly drawn) | no (0)
C=CCOC(=O)[C@H]1[C@@H]2C(=O)O[C@@H](c3ccccc3)[C@@H](c3ccccc3)N2[C@@H](c2ccc(OCCOC(=O)[C@H]3C[C@H]4C(=O)NCC(=O)N4[C@H]3c3ccc(O)cc3)cc2)[C@]12C(=O)Nc1ccc(I)cc12 | no (0)
COCCOC(=O)N1C(=O)[C@@]2(c3cc(C#CC4=CCCCC4)ccc31)[C@H](C(=O)N1CCc3cc(OC)c(OC)cc3C1)[C@H]1C(=O)O[C@H](c3ccccc3)[C@H](c3ccccc3)N1[C@@H]2c1ccc(O)cc1 | yes (1)
CC#CCO[Si](C#CCCCCCC)(C(C)C)C(C)C | no (0)
NC(=O)NCC#Cc1ccc2c(c1)[C@]1(C(=O)N2)[C@H](C(=O)Nc2nc3ccccc3s2)[C@H]2C(=O)O[C@H](c3ccccc3)[C@H](c3ccccc3)N2[C@@H]1c1ccc(OCCO)cc1 | yes (1)
COC(=O)c1ccc([C@H](NC(=O)c2ccccc2)[C@]2(C)C[C@H]2C2CCCCC2)cc1 | yes (1)
C=CCOC(=O)[C@@H]1[C@H]2C(=O)O[C@H](c3ccccc3)[C@H](c3ccccc3)N2[C@H](c2ccc(OCCOC(=O)[C@H]3C[C@H]4C(=O)NCC(=O)N4[C@H]3c3ccc(O)cc3)cc2)[C@@]12C(=O)Nc1ccc(I)cc12 | yes (1)
CC(C)CNC(=O)[C@@H]1c2ccccc2C(=O)N(Cc2ccccc2Cl)[C@H]1c1ccc(CO)cc1 | no (0)
C#CCN(C/C=C/c1ccccc1)[C@H](CO[Si](C)(C)C(C)(C)C)c1ccccc1 | no (0)
CC(C)CNC(=O)[C@@H]1c2ccccc2C(=O)N(C(C)C)[C@H]1c1ccc(CO)cc1 | no (0)
CN(C)CCCC[C@@H]1NC(=O)[C@@H]2C[C@H](C(=O)NCc3ccc(F)cc3)[C@H](c3ccc(O)cc3)N2C1=O | no (0)
C[N+](C)(C)CCCC[C@@H]1NC(=O)[C@H]2C[C@@H](C(=O)NCCCCCNC(=O)CS)[C@@H](c3ccc(O)cc3)N2C1=O | yes (1)

----------
SYSTEM_TESTED: Concanavalin-A (Canavalia ensiformis) (UniProt P02866)
Sequence (P02866 whole entry, looked up): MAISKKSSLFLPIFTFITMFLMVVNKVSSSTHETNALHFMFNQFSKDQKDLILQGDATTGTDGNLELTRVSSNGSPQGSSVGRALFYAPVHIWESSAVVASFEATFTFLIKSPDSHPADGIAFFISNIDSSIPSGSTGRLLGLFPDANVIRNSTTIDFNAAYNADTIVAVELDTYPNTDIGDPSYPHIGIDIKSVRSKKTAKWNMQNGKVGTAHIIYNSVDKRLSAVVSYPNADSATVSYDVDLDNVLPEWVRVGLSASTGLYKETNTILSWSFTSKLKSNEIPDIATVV
PROTOCOL_DESCRIPTION: ConA small-molecule binders, primary screen, artefact control for SMM control protein annotation, biochemical, small-molecule microarray, Alexa647 label, 635 nm (AID 1127);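 note: z combines 667 nm emission intensity with signal-to-noise across three replicate slides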
ASSAY_SETUP: ConA-A647 binding fluorescence, higher = more signal

MOLECULE | composite z-score
CC(C)C(=C=CC[C@@H](O)c1ccccc1OCCO)C[C@@H](O)c1cc(Cl)cc(Cl)c1O | 0.612
CC=CC(O)C1C=CC2C(=O)N(C)C(=O)C2N1NC(=O)OC(C)(C)C (configuration not stated) | 0.0815
CC(C)C[C@@H]1NC(=O)C([C@@H](C)OCc2ccccc2)NC(=O)[C@@]23C(=O)N[C@@H](Cc4ccccc4)C2[C@H](C)[C@@]2(C)O[C@H]2C3/C=C/CC/C=C/CNC1=O (some centres not stated) | 0.329
C=CCC(OC(C)=O)[C@@H]1[C@@H](N(Cc2ccc(-c3cccc(C(F)(F)F)c3)o2)C(=O)c2cccc3ccccc23)c2cc(OCCCO)ccc2N1C(=O)c1ccc2ccccc2n1 (some centres not stated) | -0.18
O=C1NC(=O)C2C1C=CC(C(O)c1cccc(O)c1)N2Nc1ccc(Cl)cc1Cl (configuration not stated) | -0.0019
COCCOC(=O)N1C(=O)[C@@]2(c3cc(C#CC4(O)CCCCCC4)ccc31)[C@H](C(=O)NC[C@H](O)c1ccccc1)[C@H]1C(=O)O[C@H](c3ccccc3)[C@H](c3ccccc3)N1[C@@H]2c1ccc(O)cc1 | 1.09
COc1ccc([Si](C)(C)[C@@H]2[C@@H](CCO)O[C@]3(C(=O)N(Cc4ccccc4)c4ccc(N5C(=O)c6ccccc6Oc6ccccc65)cc43)[C@H]2C)cc1 | 0.718
